Collected IC50 values appear next to each entry.
Biological target: human type 2 5α-reductase (Homo sapiens, UniProt P31213)
Sequence (P31213 1-254): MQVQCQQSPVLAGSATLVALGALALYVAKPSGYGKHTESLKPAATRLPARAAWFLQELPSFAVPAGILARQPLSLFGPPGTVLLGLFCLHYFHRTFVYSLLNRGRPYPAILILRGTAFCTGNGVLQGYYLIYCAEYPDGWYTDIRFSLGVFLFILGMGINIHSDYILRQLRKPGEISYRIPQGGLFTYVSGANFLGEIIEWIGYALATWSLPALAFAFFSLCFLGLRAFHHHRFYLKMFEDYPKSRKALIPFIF
Assay: 5α-reductase in vitro inhibitory activity, human type 2

The following compounds have reported results that may help.
                                   compound  quantity_kind      observed
0  C[C@]12CC[C@H]3[C@@H](CNC4=CC(=O)CC[C@@]43C)[C@@H]1CC[C@@H]2C(=O)CC1CCCCC1 [Compound 2]           IC50       < 10 nM
1  COC(=O)c1sc(C(C)(C)C)cc1NC(=O)[C@H]1CC[C@H]2[C@@H]3CNC4=CC(=O)CC[C@]4(C)[C@H]3CC[C@]12C [Compound 132]           IC50       < 10 nM
2  C[C@]12CC[C@H]3[C@@H](CNC4=CC(=O)CC[C@@]43C)[C@@H]1CC[C@@H]2C(=O)Nc1cc(C(F)(F)F)cc(C(F)(F)F)c1 [Compound 57]           IC50  10 to 100 nM
3  CC(C)Oc1ccc(C(=O)[C@H]2CC[C@H]3[C@@H]4CNC5=CC(=O)CC[C@]5(C)[C@H]4CC[C@]23C)cc1 [Compound 33]           IC50  10 to 100 nM
4  CC(C)(C)c1ccc(C2(NC(=O)[C@H]3CC[C@H]4[C@@H]5CNC6=CC(=O)CC[C@]6(C)[C@H]5CC[C@]34C)CCCCC2)cc1 [Compound 122]           IC50       < 10 nM

Continue with the compound presented below.
Prompt line: Would you please give the reported IC50 of CC(C)(C)c1ccc(C2(NC(=O)[C@H]3CC[C@H]4[C@@H]5CNC6=CC(=O)CC[C@]6(C)[C@H]5CC[C@]34C)CCCCCC2)cc1 [Compound 136] with human type 2 5α-reductase (Homo sapiens, UniProt P31213)?
Response line: < 10 nM
